target: PIK3CG (human) (UniProt P48736); test: Inhibition of PIK3CG Kinase Activity
Sequence (P48736 whole entry, looked up): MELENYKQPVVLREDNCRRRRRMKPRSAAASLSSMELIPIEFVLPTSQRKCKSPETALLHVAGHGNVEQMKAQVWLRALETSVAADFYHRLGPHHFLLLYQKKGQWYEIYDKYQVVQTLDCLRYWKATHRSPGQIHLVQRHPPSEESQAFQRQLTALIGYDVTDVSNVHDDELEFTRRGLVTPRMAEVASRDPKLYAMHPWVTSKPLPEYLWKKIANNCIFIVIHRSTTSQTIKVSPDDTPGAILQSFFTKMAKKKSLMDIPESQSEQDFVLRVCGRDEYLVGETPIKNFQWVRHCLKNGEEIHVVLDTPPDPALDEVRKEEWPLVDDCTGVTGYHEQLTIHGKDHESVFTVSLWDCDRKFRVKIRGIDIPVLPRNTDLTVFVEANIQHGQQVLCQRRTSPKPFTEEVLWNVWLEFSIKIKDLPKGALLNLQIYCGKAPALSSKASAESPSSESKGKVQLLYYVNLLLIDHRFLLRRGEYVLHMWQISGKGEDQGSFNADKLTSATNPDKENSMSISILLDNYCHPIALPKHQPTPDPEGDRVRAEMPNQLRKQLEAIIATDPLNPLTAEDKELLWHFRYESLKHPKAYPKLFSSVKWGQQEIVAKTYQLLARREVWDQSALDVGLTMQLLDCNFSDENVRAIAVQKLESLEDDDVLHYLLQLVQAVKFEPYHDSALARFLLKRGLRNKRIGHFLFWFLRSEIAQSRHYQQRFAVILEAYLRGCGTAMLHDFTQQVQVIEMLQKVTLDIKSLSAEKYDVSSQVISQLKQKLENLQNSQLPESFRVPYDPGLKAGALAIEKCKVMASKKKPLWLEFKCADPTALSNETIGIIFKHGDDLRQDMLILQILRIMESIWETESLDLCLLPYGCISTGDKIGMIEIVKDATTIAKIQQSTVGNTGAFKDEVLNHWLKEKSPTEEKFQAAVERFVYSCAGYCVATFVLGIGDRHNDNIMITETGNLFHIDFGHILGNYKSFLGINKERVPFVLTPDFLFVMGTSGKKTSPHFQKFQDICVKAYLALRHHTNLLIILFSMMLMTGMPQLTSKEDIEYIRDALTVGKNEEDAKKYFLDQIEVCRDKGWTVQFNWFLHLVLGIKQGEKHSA
hey, just use true if measured IC50 is less than 1000 nM, otherwise false

Compound | Group
COc1ccc2oc(C(=O)Nc3nnn[nH]3)c(OCC3(C)COC3)c2c1 | false
COc1ccc2oc(C(=O)Nc3nnn[nH]3)c(OCC3CC3)c2c1 | true
COc1ccc2oc(C(=O)Nc3nnn[nH]3)c(OCC3CCC3)c2c1 | true
COc1ccc2oc(C(=O)Nc3nnn[nH]3)c(OC3CC(C)CCC3C)c2c1 (configuration not stated) | true
COc1ccc2oc(C(=O)Nc3nnn[nH]3)c(OC3CCC(C)C(C)C3)c2c1 (configuration not stated) | true
CCC(Oc1c(C(=O)Nc2nnn[nH]2)oc2ccc(OC)cc12)C1CCCCC1 (configuration not stated) | true
COc1ccc2oc(C(=O)Nc3nnn[nH]3)c(OCC3CCCCC3)c2c1 | true
COc1ccc2oc(C(=O)Nc3nnn[nH]3)c(OCC3CCCC3)c2c1 | true
COc1ccc2oc(C(=O)Nc3nnn[nH]3)c(OC3CCC(C4CCCCC4)CC3)c2c1 (configuration not stated) | true
COc1ccc2oc(C(=O)Nc3nnn[nH]3)c(OC(C)C3CC3)c2c1 (configuration not stated) | false
O=C(Nc1nnn[nH]1)c1oc2ccc(Cl)cc2c1OC1CCCC1 | false
CC1(OCOc2c(C(=O)Nc3nnn[nH]3)oc3ccc(Cl)cc23)CC1 | false
